test system: ENR+CD organoids (ISC to Paneth cell differentiation); test: Primary screen: basal (non-stimulated) lysozyme secretion LYZ.NS, 2.5-D 384-well ENR+CD organoid differentiation; type: cell-based, mouse; details: primary screen, dose 0.40 uM
Where a name gives a salt, the structure may show the parent alone.
Rule: fulfilled for Dose.FC.LYZ.NS not less than -0.04 log2 fold change, not fulfilled for anything less.

[ask] Dose.FC.LYZ.NS >= -0.04 log2 fold change for CO[C@H]1C[C@@H]2CC[C@@H](C)[C@@](O)(O2)C(=O)C(=O)N2CCCC[C@H]2C(=O)O[C@H]([C@H](C)C[C@@H]2CC[C@@H](OCCO)[C@H](OC)C2)CC(=O)[C@H](C)/C=C(\C)[C@@H](O)[C@@H](OC)C(=O)[C@H](C)C[C@H](C)/C=C/C=C/C=C/1C [Everolimus (RAD001)] ?
[reply] fulfilled

[ask] Dose.FC.LYZ.NS >= -0.04 log2 fold change for `OC[C@H]1O[C@@H](c2ccc(Cl)c(Cc3ccc(O[C@H]4CCOC4)cc3)c2)[C@H](O)[C@@H](O)[C@@H]1O` ?
[reply] fulfilled

[ask] Dose.FC.LYZ.NS >= -0.04 log2 fold change for COCCCC/C(=N\OCCN)c1ccc(C(F)(F)F)cc1 [Fluvoxamine maleate] ?
[reply] fulfilled

[ask] Dose.FC.LYZ.NS >= -0.04 log2 fold change for `COc1cc(N2CCC(N3CCN(C)CC3)CC2)ccc1Nc1ncc(Cl)c(Nc2ccccc2P(C)(C)=O)n1` ?
[reply] not fulfilled

[ask] Dose.FC.LYZ.NS >= -0.04 log2 fold change for `Cn1cc(C2=C(c3cn(C4CCN(Cc5ccccn5)CC4)c4ccccc34)C(=O)NC2=O)c2ccccc21` ?
[reply] fulfilled

[ask] Dose.FC.LYZ.NS >= -0.04 log2 fold change for COc1cc2/c(=N/c3ccc(Br)cc3F)nc[nH]c2cc1OCC1CCN(C)CC1 [Vandetanib (ZD6474)] ?
[reply] not fulfilled

[ask] Dose.FC.LYZ.NS >= -0.04 log2 fold change for `CN(C)C(=O)Nc1cccc(-c2ccc(N(C)C)cc2)c1` ?
[reply] fulfilled

[ask] Dose.FC.LYZ.NS >= -0.04 log2 fold change for `CCN(CC)C(=O)/C(C#N)=C/c1cc(O)c(O)c([N+](=O)[O-])c1` ?
[reply] fulfilled

[ask] Dose.FC.LYZ.NS >= -0.04 log2 fold change for `Cn1c(N2CCCCS2(=O)=O)nc(C(=O)NCc2ccc(F)cc2)c(O)c1=O` ?
[reply] fulfilled

[ask] Dose.FC.LYZ.NS >= -0.04 log2 fold change for `O=c1[nH]c2ccc(Cl)cc2c(N[C@@H]2CN3CCC2CC3)c1-c1nc2ccccc2[nH]1` ?
[reply] not fulfilled

[ask] Dose.FC.LYZ.NS >= -0.04 log2 fold change for `COc1cccc(C=NCCN=Cc2cccc(OC)c2[O-])c1[O-].[Cl-].[Mn+3]` ?
[reply] fulfilled

[ask] Dose.FC.LYZ.NS >= -0.04 log2 fold change for `CC(C)OC(=O)C1=CN(C(=O)c2ccc(F)c(F)c2)CC(C)(C)c2c1[nH]c1ccccc21` ?
[reply] not fulfilled

[ask] Dose.FC.LYZ.NS >= -0.04 log2 fold change for `NC(=O)Nc1cc(-c2cccc(F)c2)sc1C(=O)N[C@H]1CCCNC1` ?
[reply] not fulfilled

[ask] Dose.FC.LYZ.NS >= -0.04 log2 fold change for `CCC(CC)CC1(C(=O)Nc2ccccc2SC(=O)C(C)C)CCCCC1` ?
[reply] fulfilled

[ask] Dose.FC.LYZ.NS >= -0.04 log2 fold change for `CC(C)Oc1ccc(-c2cnc3c(-c4ccnc5ccccc45)cnn3c2)cc1` ?
[reply] fulfilled

[ask] Dose.FC.LYZ.NS >= -0.04 log2 fold change for Cl.N[C@@H]1C[C@H]1c1ccccc1 (racemic) [Tranylcypromine (2-PCPA) HCl] ?
[reply] not fulfilled

[ask] Dose.FC.LYZ.NS >= -0.04 log2 fold change for `Cc1cc([C@@H](C)Nc2ccccc2C(=O)O)c2nc(N3CCOCC3)cc(=O)n2c1` ?
[reply] fulfilled

[ask] Dose.FC.LYZ.NS >= -0.04 log2 fold change for `CCN1CCN(c2ccc(Nc3cc(N(C)C(=O)Nc4c(Cl)c(OC)cc(OC)c4Cl)ncn3)cc2)CC1` ?
[reply] not fulfilled

[ask] Dose.FC.LYZ.NS >= -0.04 log2 fold change for CCOc1ccc(Cc2cc([C@@H]3O[C@H](CO)[C@@H](O)[C@H](O)[C@H]3O)ccc2Cl)cc1 [Dapagliflozin, reference compound] ?
[reply] fulfilled

[ask] Dose.FC.LYZ.NS >= -0.04 log2 fold change for `NC(=O)Nc1sc(-c2ccc(F)cc2)cc1C(N)=O` ?
[reply] not fulfilled
